Biological target: Recombinant human ASK1 kinase (Homo sapiens)
Construct: purchased Invitrogen Inc
Sequence (Q99683 1-1374): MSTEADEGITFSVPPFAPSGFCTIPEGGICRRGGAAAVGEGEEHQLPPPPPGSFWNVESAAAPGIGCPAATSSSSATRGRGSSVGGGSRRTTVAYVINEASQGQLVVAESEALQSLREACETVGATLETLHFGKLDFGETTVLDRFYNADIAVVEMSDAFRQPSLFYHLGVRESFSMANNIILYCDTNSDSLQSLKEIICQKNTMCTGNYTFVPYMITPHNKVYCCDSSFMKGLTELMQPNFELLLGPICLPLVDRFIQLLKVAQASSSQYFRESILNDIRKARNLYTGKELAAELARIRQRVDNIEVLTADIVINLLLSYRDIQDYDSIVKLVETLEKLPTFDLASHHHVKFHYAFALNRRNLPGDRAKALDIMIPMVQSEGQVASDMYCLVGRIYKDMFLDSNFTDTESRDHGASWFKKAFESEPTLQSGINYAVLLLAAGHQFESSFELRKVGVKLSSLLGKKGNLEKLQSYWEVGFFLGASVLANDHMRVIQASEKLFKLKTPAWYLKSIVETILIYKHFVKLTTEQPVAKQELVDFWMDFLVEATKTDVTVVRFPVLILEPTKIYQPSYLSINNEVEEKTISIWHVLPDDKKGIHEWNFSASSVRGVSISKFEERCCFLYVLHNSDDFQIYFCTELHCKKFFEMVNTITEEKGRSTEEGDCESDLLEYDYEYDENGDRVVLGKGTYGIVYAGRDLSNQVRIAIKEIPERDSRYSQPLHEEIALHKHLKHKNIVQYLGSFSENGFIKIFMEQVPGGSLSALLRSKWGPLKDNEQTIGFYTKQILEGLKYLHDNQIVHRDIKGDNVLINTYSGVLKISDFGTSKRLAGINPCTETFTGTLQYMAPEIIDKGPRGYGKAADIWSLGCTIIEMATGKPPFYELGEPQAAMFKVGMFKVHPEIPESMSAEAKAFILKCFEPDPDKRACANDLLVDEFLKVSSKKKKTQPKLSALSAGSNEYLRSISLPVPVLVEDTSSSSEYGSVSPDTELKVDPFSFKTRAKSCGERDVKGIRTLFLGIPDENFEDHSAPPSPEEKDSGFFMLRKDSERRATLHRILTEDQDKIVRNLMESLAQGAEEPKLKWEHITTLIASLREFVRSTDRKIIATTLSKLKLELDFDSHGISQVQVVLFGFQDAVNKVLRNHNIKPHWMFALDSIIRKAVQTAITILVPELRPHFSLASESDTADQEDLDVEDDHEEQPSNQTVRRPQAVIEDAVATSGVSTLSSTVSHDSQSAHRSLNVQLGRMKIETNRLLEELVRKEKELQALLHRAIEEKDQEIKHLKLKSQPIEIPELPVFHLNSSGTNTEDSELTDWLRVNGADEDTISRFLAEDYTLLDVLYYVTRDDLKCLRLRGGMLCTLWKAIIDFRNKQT
Assay: ASK1 kinase HTRF assay (HTRF KinEASE-STK, phosphorylation of biotinylated peptide substrate)
Assay type: biochemical
pEC50: −log10 of the molar value.
Recorded pEC50 for the following compounds
quantity.measured: pEC50

>>> result("C[C@H](CO)n1cnnc1-c1cccc(NC(=O)Nc2ccc3ccccc3n2)n1")
"> 7.30"
>>> result("CC(C)n1cnnc1-c1cccc(NC(=O)Nc2ccccc2)n1")
"6.30 to 7.30"
>>> result("CC(C)n1cnnc1-c1cccc(NC(=O)Nc2ccncc2)n1")
"6.30 to 7.30"
>>> result("C[C@H](CO)n1cnnc1-c1cccc(NC(=O)Nc2cc(C(=O)N3CCCC3)ccn2)n1")
"> 7.30"
>>> result("CC(C)n1cnnc1-c1cccc(NC(=O)Nc2nccc3ccccc23)n1")
"> 7.30"
>>> result("C[C@H](CO)n1cnnc1-c1cccc(NC(=O)Nc2cc(C(=O)N3CCCCC3)ccn2)n1")
"> 7.30"
>>> result("C[C@H](CO)n1cnnc1-c1cccc(NC(=O)Nc2cc(C(=O)N3CCOCC3)ccn2)n1")
"> 7.30"
>>> result("CC(C)n1cnnc1-c1cccc(NC(=O)Nc2cc3ccccc3cn2)n1")
"> 7.30"

---

Target: Recombinant human ASK1 kinase (Homo sapiens, UniProt Q99683)
Construct: purchased Invitrogen Inc
Assay: ASK1 kinase HTRF assay (HTRF KinEASE-STK, phosphorylation of biotinylated peptide substrate)
Assay type: biochemical
Details: 3 nM ASK1 kinase, 1 uM STK-substrate-biotin, HTRF detection; read-out: EC50
Excerpt: Reagents: Recombinant human ASK1 kinase was from Invitrogen Inc. HTRF KinEASETM-STK S3 kit was obtained from Cisbio (Bedford, Mass.). All other reagents were of the highest grade commercially available. Assay: The assay measures the phosphorylation level of a biotinylatd peptide substrate by the ASK1 kinase using HTRF detection. ASK1 kinase assay is based on HTRF KinEASETM-STK manual from Cisbio. […]
pEC50: −log10 of the molar value.
quantity.measured: pEC50

>>> result("CC(=O)OC[C@@H](C)n1cnnc1-c1cccc(NC(=O)Nc2cc3ccccc3cn2)n1")
"6.30 to 7.30"
>>> result("CC(C)n1cnnc1-c1cccc(NC(=O)Nc2cc(Br)ccn2)n1")
"> 7.30"
>>> result("CC(C)n1cnnc1-c1cccc(NC(=O)Nc2cc3cc(N4CCNCC4)ccc3cn2)n1")
"6.30 to 7.30"
>>> result("Cc1ccc(N(C)C(=O)Nc2cccc(-c3nncn3C(C)C)n2)c(F)c1")
"5.30 to 6.30"
>>> result("CC(C)n1cnnc1-c1cccc(NC(=O)Nc2cc(N3CCN(C)CC3)ccn2)n1")
"> 7.30"
>>> result("CC(C)n1cnnc1-c1cccc(NC(=O)Nc2cc(C(=O)N3CCCC4CCCCC43)ccn2)n1 (centres unmarked)")
"> 7.30"
>>> result("C[C@@H](CO)n1cnnc1-c1cccc(NC(=O)Nc2cc(-c3ccccc3)ccn2)n1")
"> 7.30"
>>> result("CC(C)n1cnnc1-c1cccc(NC(=O)Nc2cccc(N3CCCC3)n2)n1")
"6.30 to 7.30"
>>> result("CC(C)n1cnnc1-c1cccc(NC(=O)Nc2nc3ccccc3o2)n1")
"> 7.30"
>>> result("CC(C)n1cnnc1-c1cccc(N2CCN(c3ccc(C(=O)N4CCOCC4)cn3)C2=O)n1")
"> 7.30"
>>> result("Cc1ccc(NC(=O)Nc2cccc(-c3nncn3C(C)C)n2)nc1")
"> 7.30"
>>> result("C[C@H](CO)n1cnnc1-c1cccc(NC(=O)Nc2cc(-c3ccccn3)ccn2)n1")
"> 7.30"
>>> result("C[C@H](CO)n1cnnc1-c1cccc(NC(=O)Nc2cc(C(=O)N3CCC(C)(C)CC3)ccn2)n1")
"> 7.30"
>>> result("CC(C)n1cnnc1-c1cccc(NC(=O)Nc2ccc(C(N)=O)cn2)n1")
"> 7.30"
>>> result("O=C(Nc1cccc(-c2nncn2C2CC2)n1)Nc1ccc2ccccc2n1")
"> 7.30"
>>> result("CC(C)n1cnnc1-c1cccc(NC(=O)Nc2cc(C(=O)N3CCC(N4CCOCC4)CC3)ccn2)n1")
"> 7.30"
>>> result("CC(C)n1cnnc1-c1cccc(NC(=O)Nc2cc(N3CCN(CCO)CC3)ccn2)n1")
"> 7.30"
